tested on: PBMC from healthy HCMV seropositive donors; assay: IFN-γ ELISPOT assay; format: cell-based, human; conditions: donor epsilon; peptide 10 μg/ml
measuredParameter: ELISPOT Responses (SFC/10^6 PBMC)
// return numeric value only (unit: SFC/10^6 PBMC, not printed)

IIKPGKISHIMLDVAFTSHE; 691

Let's switch to this sequence now.
Give the observed ELISPOT Responses (SFC/10^6 PBMC) of ELRRKMMYM (human cytomegalovirus IE1 CTL epitope peptide) for PBMC from healthy HCMV seropositive donors. 1243

====

system: CD8+ T cells; assay: CD4+/CD8+ analysis of 20-mer peptides (intracellular IFN-γ staining or depletion ELISPOT); assay type: cell-based, human; conditions: donor seven
measuredParameter: Responding cells (% CD8) (%)
Give your result in % as a bare value.

Give Responding cells (% CD8) only, for "AHELVCSMENTRATKMQVIG" , using CD8+ T cells data. 0.01

State the measured Responding cells (% CD8) (CD8+ T cells) of "IIKPGKISHIMLDVAFTSHE" 0.03

State, for CD8+ T cells, measured Responding cells (% CD8) of the sequence listed here: "QYDPVAALFFFDIDLLLQRG" 0.03

System CD8+ T cells. Read-out Responding cells (% CD8). Item "TRATKMQVIGDQYVKVYLES" . Report value. 0.01

These measurements were taken from patent US7524503B2.
